molecular target: Mitogen-activated protein kinase kinase kinase 5 (Homo sapiens); assay: MAP3K5 inhibition concentration-response curves – biochemical, AlphaScreen, MKK6 phosphorylation, dose response (AID 1159605); settings: ASK1 MKK6 phosphorylation, AlphaScreen luminescence;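 further: ASK1 phosphorylation of MKK6 substrate detected with anti-phospho-MKK6 antibody beads; inhibitors lower the luminescent signal by blocking MKK6 phosphorylation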
Calls of active or inactive are those of the source.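 How the source made its calls: active means IC50 of 10 µM or lower; inactive means IC50 above 10 µM.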
VALUE KIND: IC50

IN: Please give the measured IC50 for this molecule: CCN(CC)C(=O)C1CCCN(c2nc(Nc3ccc(N4CCOCC4)cc3)c3ncn(Cc4ccc(C(F)(F)F)cc4)c3n2)C1 (centres undefined)
OUT: inactive

IN: Endpoint output: IC50 of Cc1cc(NC2CCN(Cc3ccccc3)CC2)nc(Nc2cccc(N(C)C)c2)n1 . Value?
OUT: > 21.2 µM (inactive)

IN: Using the record for COc1c(-c2cnn(C)c2)ccc2cnc(Nc3ccc(-n4cnc(N5CCOCC5)n4)cc3)nc12 , report its IC50.
OUT: > 19.2 µM (inactive)

IN: Please look up its IC50: Cc1cnc(Nc2ccc(N3CCOCC3)cc2)nc1NCc1cccc(C(F)(F)F)c1
OUT: 8.86 µM

IN: # input molecule: Nc1cc(C2=C3C=CN=C3C(=O)NCC2)c(O)[nH]1 ; wanted: its IC50
OUT: > 19.2 µM (inactive)

Could you now consider this next molecule?
IN: Form field: reported IC50 of CC(C)n1cnc2c(Nc3ccc(N4CCOCC4)cc3)nc(N3CCN(Cc4ccc5c(c4)OCO5)CC3)nc21
OUT: inactive
